# Test system: HCT-116
# assay protocol: cells
# test parameters: Homo sapiens, HCT-116, 72 h
# Description: Antiproliferative activity against human HCT-116 cells after 72 hrs by MTT assay
A collection of compounds and their measured pIC50
Remember the convention: pIC50 equals -log10 of concentration in molar.

Some solved entries appear below for comparison.
{"columns": ["compound string", "pIC50"],
 "data": [
  ["CCC(=O)NNC(=O)c1csc2ncc(-c3ccc(Br)cc3)n12", 4.60],
  ["CCOC(=O)c1csc2nc(CN3CCOCC3)c(-c3ccc(OC)cc3)n12", 4.59]
]}

Find the measured pIC50 of COc1ccc(NC(=S)Nc2nc(C(=O)NCc3ccccc3)cs2)cc1 and report it.
4.74

Find the measured pIC50 of CC(=O)NNC(=O)c1csc2nc(CN3CCOCC3)c(-c3ccc(C)cc3)n12 and report it.
4.26

---

A collection of molecules and their measured pIC50
# System: WI-38
# assay protocol: Antiproliferative activity against human WI-38 cells after 72 hrs by MTT assay
# Assay type: functional, cell-based
# test parameters: WI-38, 72 h
Remember the convention: pIC50 equals -log10 of concentration in molar.

Some solved entries appear below for comparison.
{"columns": ["compound string", "measured on", "pIC50"],
 "data": [
  ["CCC(=O)NNC(=O)c1csc2ncc(-c3ccc(C)cc3)n12", "WI-38", 4.17],
  ["Cc1ccc(-c2c(CN3CCOCC3)nc3scc(C(=O)NN)n23)cc1", "WI-38", 4.05],
  ["CC(=O)NNC(=O)c1csc2ncc(-c3ccc(Br)cc3)n12", "WI-38", 4.27],
  ["NNC(=O)c1csc2nc(CN3CCOCC3)c(-c3ccc(Br)cc3)n12", "WI-38", 4.30]
]}

From here, focus on the item given below.
Find the measured pIC50 of COc1ccc(-c2c(CN3CCOCC3)nc3scc(C(=O)NN)n23)cc1 and report it.
4.43

---

A collection of molecules and their measured pIC50
# System: HCT-116
# assay protocol: cells
# test parameters: Homo sapiens, HCT-116, 72 h
Remember the convention: pIC50 equals -log10 of concentration in molar.

Some solved entries appear below for comparison.
{"columns": ["molecule", "pIC50"],
 "data": [
  ["CCOC(=O)c1csc2nc(CN3CCOCC3)c(-c3ccc(Br)cc3)n12", 4.55],
  ["CCC(=O)NNC(=O)c1csc2ncc(-c3ccc(C)cc3)n12", 5.03],
  ["CCOC(=O)c1csc2nc(CN3CCN(C)CC3)c(-c3ccc(C)cc3)n12", 4.21],
  ["CCOC(=O)c1csc2nc(CN3CCN(C)CC3)c(-c3ccc(OC)cc3)n12", 4.35],
  ["CCOC(=O)c1csc2nc(CN3CCN(C)CC3)c(-c3ccc(Br)cc3)n12", 4.03]
]}

Look up HCT-116 data: pIC50 of CN(Cc1cnc2nc(N)nc(N)c2n1)c1ccc(C(=O)N[C@@H](CCC(=O)O)C(=O)O)cc1 [METHOTREXATE] , then report it.
5.03

Look up HCT-116 data: pIC50 of Cc1ccc(-c2c(CN3CCCCC3)nc3scc(C(=O)O)n23)cc1 , then report it.
4.86

Look up HCT-116 data: pIC50 of CCCC(=O)NNC(=O)c1csc2nc(CN3CCOCC3)c(-c3ccc(Br)cc3)n12 , then report it.
4.33

Look up HCT-116 data: pIC50 of Cc1ccc(-c2c(CN3CCOCC3)nc3scc(C(=O)NN)n23)cc1 , then report it.
4.88

Look up HCT-116 data: pIC50 of O=C(NCc1ccccc1)c1csc(NC(=S)Nc2ccc(Cl)cc2)n1 , then report it.
4.21

Look up HCT-116 data: pIC50 of CC(=O)NNC(=O)c1csc2nc(CN3CCOCC3)c(-c3ccc(Br)cc3)n12 , then report it.
4.66

Look up HCT-116 data: pIC50 of CCOC(=O)c1csc2nc(CN3CCN(Cc4ccccc4)CC3)c(-c3ccc(Br)cc3)n12 , then report it.
4.43

Look up HCT-116 data: pIC50 of CCC(=O)NNC(=O)c1csc2nc(CN3CCOCC3)c(-c3ccc(Br)cc3)n12 , then report it.
4.47

---

# Tested on: HCT-116
# assay protocol: cells
# test parameters: Homo sapiens, HCT-116, 72 h
A collection of compounds and their measured pIC50
Remember the convention: pIC50 equals -log10 of concentration in molar.

Some solved entries appear below for comparison.
{"columns": ["compound string", "pIC50"],
 "data": [
  ["COc1ccc(-c2cnc3scc(C(=O)NNC(C)=O)n23)cc1", 4.77],
  ["CCC(=O)NNC(=O)c1csc2nc(CN3CCOCC3)c(-c3ccc(OC)cc3)n12", 4.23],
  ["CCOC(=O)c1csc2nc(CN3CCN(Cc4ccccc4)CC3)c(-c3ccc(C)cc3)n12", 4.32],
  ["NNC(=O)c1csc2nc(CN3CCOCC3)c(-c3ccc(Br)cc3)n12", 4.75],
  ["CCCC(=O)NNC(=O)c1csc2nc(CN3CCOCC3)c(-c3ccc(C)cc3)n12", 4.11],
  ["COc1ccc(-c2c(CN3CCCCC3)nc3scc(C(=O)O)n23)cc1", 4.07],
  ["CCCC(=O)NNC(=O)c1csc2ncc(-c3ccc(Br)cc3)n12", 4.30]
]}

From here, focus on the item given below.
Find the measured pIC50 of CCOC(=O)c1csc2nc(CN3CCOCC3)c(-c3ccc(C)cc3)n12 and report it.
4.49
